# assay system: Beta-lactamase (Pseudomonas aeruginosa (strain ATCC 15692 / PAO1 / 1C / PRS 101 / LMG12228))
readout label: k off (s⁻¹)

[[record]]
molecule = "O=C(NC1CCNCC1)N1CC[C@@H]2[C@H]1C(=O)N2S(=O)(=O)[O-].[Na+]"
readout_label = "k off"
comparison_symbol = "="
recorded_number = 0.0012

[[record]]
molecule = "Cn1nnnc1S[C@@H]1CN(C(=O)OCc2ccccc2)[C@@H]2C(=O)N(S(=O)(=O)[O-])[C@@H]21.[Na+]"
readout_label = "k off"
comparison_symbol = "="
recorded_number = "4.1e-05"

[[record]]
molecule = "NC(C(=O)N1CC[C@@H]2[C@H]1C(=O)N2S(=O)(=O)[O-])c1ccc(O)cc1.[Na+] (stereo partly specified)"
readout_label = "k off"
comparison_symbol = "<"
recorded_number = "1e-05"

[[record]]
molecule = "O=C(Nc1ccc(O)cc1)N1CC[C@@H]2[C@H]1C(=O)N2S(=O)(=O)[O-].[Na+]"
readout_label = "k off"
comparison_symbol = "="
recorded_number = "5.3e-05"

[[record]]
molecule = "CC(C)(C)OC(=O)N1CCC[C@@H]2[C@H]1C(=O)N2S(=O)(=O)[O-].[Na+]"
readout_label = "k off"
comparison_symbol = "="
recorded_number = 0.0007

[[record]]
molecule = "CC(C)(C)OC(=O)N1CC[C@@H]2[C@H]1C(=O)N2S(=O)(=O)[O-].[Na+]"
readout_label = "k off"
comparison_symbol = "="
recorded_number = "3.7e-05"


---

# Test system: Pseudomonas aeruginosa
# method: In vitro inhibition of Pseudomonas aeruginosa 18SH growth.
# Format: functional
readout label: MIC

[[record]]
smiles_record = "O=C(OCc1ccccc1)N1CC[C@@H]2[C@H]1C(=O)N2S(=O)(=O)[O-].[Na+]"
assay_system = "Pseudomonas aeruginosa"
result = "128 µg/mL"

[[record]]
smiles_record = "O=C(OCc1ccccc1)N1C[C@H](F)[C@@H]2[C@H]1C(=O)N2S(=O)(=O)[O-].[Na+]"
assay_system = "Pseudomonas aeruginosa"
result = "> 16 µg/mL"

[[record]]
smiles_record = "O=C(/C=C/c1c[nH]cn1)N1CC[C@@H]2[C@H]1C(=O)N2S(=O)(=O)[O-].[Na+]"
assay_system = "Pseudomonas aeruginosa"
result = "8 µg/mL"

[[record]]
smiles_record = "NC(=O)c1cccc(NC(=O)N2CC[C@@H]3[C@H]2C(=O)N3S(=O)(=O)[O-])c1.[Na+]"
assay_system = "Pseudomonas aeruginosa"
result = "16 µg/mL"

[[record]]
smiles_record = "O=C(Nc1ccccc1)N1CC[C@@H]2[C@H]1C(=O)N2S(=O)(=O)[O-].[Na+]"
assay_system = "Pseudomonas aeruginosa"
result = "8 µg/mL"

[[record]]
smiles_record = "Cn1cnnc1SCC(=O)N1CC[C@@H]2[C@H]1C(=O)N2S(=O)(=O)[O-].[Na+]"
assay_system = "Pseudomonas aeruginosa"
result = "128 µg/mL"

[[record]]
smiles_record = "O=C(O)[C@H]1/C(=C/CO)O[C@@H]2CC(=O)N21"
assay_system = "Pseudomonas aeruginosa"
result = "> 32 µg/mL"

[[record]]
smiles_record = "NC(=O)c1ccc(NC(=O)N2CC[C@@H]3[C@H]2C(=O)N3S(=O)(=O)[O-])cc1.[Na+]"
assay_system = "Pseudomonas aeruginosa"
result = "4 µg/mL"

[[record]]
smiles_record = "O=C(CNc1ccc(O)cc1)N1CC[C@@H]2[C@H]1C(=O)N2S(=O)(=O)[O-].[Na+]"
assay_system = "Pseudomonas aeruginosa"
result = "128 µg/mL"

[[record]]
smiles_record = "NC(=O)/C=C1\\CN(C(=O)OCc2ccccc2)[C@@H]2C(=O)N(S(=O)(=O)[O-])[C@H]12.[Na+]"
assay_system = "Pseudomonas aeruginosa"
result = "> 16 µg/mL"

[[record]]
smiles_record = "O=C1NCC[C@@H]1NC(=O)N1CC[C@@H]2[C@H]1C(=O)N2S(=O)(=O)[O-].[Na+]"
assay_system = "Pseudomonas aeruginosa"
result = "4 µg/mL"

